B1: VH:VL chains; a variant is named by its letters at X, in order (parent)
chain 1: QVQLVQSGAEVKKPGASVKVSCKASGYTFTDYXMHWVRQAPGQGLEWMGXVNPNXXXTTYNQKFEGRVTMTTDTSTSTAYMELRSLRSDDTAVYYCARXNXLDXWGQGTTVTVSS
chain 2: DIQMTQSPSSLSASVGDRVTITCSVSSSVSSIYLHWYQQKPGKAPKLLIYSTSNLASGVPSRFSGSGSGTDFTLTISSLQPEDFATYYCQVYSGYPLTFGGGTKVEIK

- Variants of: B1
- testDescription: yeast display scFab, FACS + sequencing
- reportedConditions: with MET
This is one part of the list. No count for the full screen is at hand.
observedProperty: antigen binding call

Input `YRERGAGF` . Output antigen binding call: binds

Input `YKARGSAA` . Output antigen binding call: binds

Input `YKRGSSVD` . Output antigen binding call: binds

Input `YEGGTDGA` . Output antigen binding call: no binding

Input `VKRGSFVD` . Output antigen binding call: no binding

More entries:
Input `VATTDSVD` . Output antigen binding call: no binding

Input `YTRKSSVD` . Output antigen binding call: no binding

Input `VTGTGDAD` . Output antigen binding call: no binding

Input `YTRAGSAA` . Output antigen binding call: no binding

Input `DTGGSASA` . Output antigen binding call: no binding

Input `YRAKGSAA` . Output antigen binding call: binds

Input `DGGKGAVD` . Output antigen binding call: no binding

Input `FRGRGSVD` . Output antigen binding call: binds

Input `YRGKGVGD` . Output antigen binding call: binds

Input `YRGRSSAA` . Output antigen binding call: binds

Input `DATTDSVD` . Output antigen binding call: no binding

Input `VTKESAAV` . Output antigen binding call: no binding

Input `YAARGSAA` . Output antigen binding call: no binding

Input `FTGEADAS` . Output antigen binding call: no binding

Input `AETKGDWD` . Output antigen binding call: binds

Input `YEGRNVGV` . Output antigen binding call: no binding

Input `VTTKSSSA` . Output antigen binding call: no binding

FYI, the data here is from the emibetuzumab library of Makowski et al. (2022).
